Sourced from patent US7943774B2

# assay_comment: log P (pH2.3)
# Assay type: physicochemical
# details: method [c]: LC-MS, neutral range, pH 7.8, 0.001 molar aqueous ammonium bicarbonate solution and acetonitrile; HPLC on reversed-phase C 18
Examples of molecules with documented log p follow.

Examples with their reported log p follow.
structure_smiles	log p
Cc1cc(C(F)(F)F)nn1CC(=O)N1CCC(c2nc(C#Cc3c(F)cccc3F)cs2)CC1	3.86^[c];
Cc1ccc(C)c(CC(=O)N2CCC(c3nc(C#Cc4ccccc4C)cs3)CC2)c1	4.78^[c];
O=C(Cn1nc(C(F)F)cc1C(F)F)N1CCC(c2nc(C#Cc3ccccc3Br)cs2)CC1	4.04^[c];

Challenge: Item Cc1cc(C(F)(F)F)nn1CC(=O)N1CCC(c2nc(C#Cc3ccccc3Br)cs2)CC1 : provide log p
Response given: 4.19^[c];

Challenge: Let me know recorded log p for Cc1ccc(C)c(CC(=O)N2CCC(c3nc(C#Cc4c(F)cccc4F)cs3)CC2)c1 , thanks.
Response given: 4.39^[c];

Challenge: Provide only the value of recorded log p for Cc1ccc(C)c(CC(=O)N2CCC(c3nc(CCc4ccccc4C)cs3)CC2)c1
Response given: 4.77^[c];
